# inhibition per record follows
- Tested on: Escherichia coli
- experiment_summary: Inhibition of wild-type Escherichia coli MurB compound preincubated for 10 mins before substrate addition at 25 uM measured after 15 mins by LC-MS method

Record excerpt, results attached:
C=CCNCc1ccccc1 : < 15%
N#CCC(=O)NCc1ccccc1 : < 15%

Ask | // query inhibition value for entry "Cc1ccc(NC(=O)CC#N)cc1"
Reply | < 15%

Ask | // query inhibition value for entry "O=C(CCl)Nc1ccccc1"
Reply | < 15%

Ask | // query inhibition value for entry "CNC(=O)C[S+](C)C"
Reply | < 15%

Ask | // query inhibition value for entry "C=CCNC1CCCC1"
Reply | 17%

Ask | // query inhibition value for entry "N#CCNC(=O)c1ccccc1"
Reply | 17%

Ask | // query inhibition value for entry "C=CC(=O)NC1CCCC1"
Reply | < 15%

Ask | // query inhibition value for entry CCCCNC(=O)C1CC(Br)=NO1 (stereo not given)
Reply | < 15%

Ask | // query inhibition value for entry "C=CC(=O)NCCCC"
Reply | < 15%

Ask | // query inhibition value for entry O=C(Nc1ccccc1)C1CC(Br)=NO1 (stereo not given)
Reply | < 15%

Ask | // query inhibition value for entry O=C(Nc1ccc([N+](=O)[O-])cc1)C1CC(Br)=NO1 (stereo not given)
Reply | < 15%

Ask | // query inhibition value for entry "C=CCNc1ccc(OC)cc1"
Reply | 20%

Ask | // query inhibition value for entry "C[S+](C)CC(=O)NCc1ccccc1"
Reply | < 15%

Ask | // query inhibition value for entry "C=CCNc1ccc(F)cc1"
Reply | 17%

Ask | // query inhibition value for entry "O=C(Nc1ccc(F)cc1)n1ccnc1"
Reply | < 15%

Ask | // query inhibition value for entry CCCCC(N)C(=O)OC (stereo not given)
Reply | < 22%

Ask | // query inhibition value for entry "COc1ccc(NC(=O)n2ccnc2)cc1"
Reply | < 15%

Ask | // query inhibition value for entry "C=CCNCCCC"
Reply | 19%

Ask | // query inhibition value for entry O=C(NCCc1ccccc1)C1CC(Br)=NO1 (stereo not given)
Reply | 16%

Ask | // query inhibition value for entry "C[S+](C)CC(=O)NCCc1ccccc1"
Reply | < 15%

Ask | // query inhibition value for entry CCCCC(NC(=O)CC#N)C(=O)OC (stereo not given)
Reply | < 15%

Ask | // query inhibition value for entry BrC1=NOC(c2ccccc2)C1 (stereo not given)
Reply | < 15%

Ask | // query inhibition value for entry "Cc1ccc(NC(=O)n2ccnc2)cc1"
Reply | < 15%

Ask | // query inhibition value for entry "N#CCC(=O)Nc1ccccc1"
Reply | < 15%
